# Tested on: HCT-116 human colon cancer xenografts
# test.protocol: Tumor growth inhibition of HCT-116 human colon cancer xenografts in nude mice
# Assay type: in vivo, Balb/c nude mice
# assay.context: Day 18; single IP injection (QD×1); D1 and D2 400 mg/kg, D3 350 mg/kg, D4 300 mg/kg
measured.attribute: Relative tumor volume (RTV)
Please reply with the number alone, leaving off any unit.

I'm curious: which Relative tumor volume (RTV) was measured for O=C(CCCC(=O)OC[C@H]1O[C@@H](n2ccc(NC(=O)OCc3ccccc3)nc2=O)C(F)(F)[C@@H]1O)OC[C@H]1O[C@@H](n2ccc(NC(=O)OCc3ccccc3)nc2=O)C(F)(F)[C@@H]1O [Compound D3] tested on HCT-116 human colon cancer xenografts?
3.16

How about CCCCOC(=O)Nc1ccn(C2OC(COC(=O)CCC(=O)OC[C@H]3O[C@@H](n4ccc(NC(=O)OCc5ccccc5)nc4=O)C(F)(F)[C@@H]3O)C(O)C2(F)F)c(=O)n1 (stereo in doubt) [Compound D4] ?
5.11

And what about the compound CCCCOC(=O)Nc1ccn([C@H]2O[C@@H](COC(=O)CCC(=O)OC[C@H]3O[C@@H](n4ccc(NC(=O)OCCCC)nc4=O)C(F)(F)[C@@H]3O)[C@H](O)C2(F)F)c(=O)n1 (stereo in doubt) [Compound D2] ?
4.20

Another compound: CCCCOC(=O)Nc1ccn(C2OC(COC(=O)CCCC(=O)OC[C@H]3O[C@@H](n4ccc(NC(=O)OCCCC)nc4=O)C(F)(F)[C@@H]3OC(=O)OCCCC)C(OC(=O)OCCCC)C2(F)F)c(=O)n1 (stereo in doubt) [Compound D1]
20.37
